Tested on: HSkMC
assay-overview: cytotoxicity call (relative viability < 0.9)
experimental-setup: 10 µM
Among all 39,000 compounds or so, about 1,500 (3.8%) were called active. This excerpt belongs to a sample that is enriched for actives.
One label from this list, please: label 1 for active, label 0 for inactive

What is the recorded call for this compound in the test? COc1ccc(C2(CN)CCCC2)cc1
label 0

Ok, now CC(=O)OC1CC2(C)C(c3ccoc3)CC3OC32C2(C)C(=O)C(O)=C3C(C)(C)C(=O)C=CC3(C)C12 (stereo not given)
label 1

Ok, now CCOc1ccc(CN)cn1
label 0

Ok, now N.N.[Cl][Pt][Cl]
label 0

Ok, now N#Cc1c(Cl)c(Cl)c(Cl)c(C#N)c1Cl
label 1

* * *

System: HSkMC
assay-overview: cytotoxicity call (relative viability < 0.9)
experimental-setup: 10 µM
Screen size: about 39,000 compounds; about 1,500 (3.8%) were called active. The sample as a whole holds a higher share of actives than the screen did.
One label from this list, please: class 1 (active), class 0 (inactive)

Some entries whose results are on file:
compound=CN1C(=O)[C@]23CC4=CC=C[C@H](O)[C@H]4N2C(=O)[C@@]1(CO)SS3 category_label="class 1"
compound=C[C@H](CO)N1C[C@H](C)[C@@H](CN(C)C(=O)Oc2cccc3ccccc23)OCc2cn(nn2)CCCC1=O category_label="class 0"

Next compound, please.
What is the recorded call for this compound in the test? CC(C)C12OC1C1OC13C1(C)CCC4=C(COC4=O)C1CC1OC13C2O (stereo not drawn)
class 0

* * *

Test system: HSkMC (human skeletal muscle cells)
assay-overview: cytotoxicity call (relative viability < 0.9)
experimental-setup: 10 µM
Screen size: about 39,000 compounds; about 1,500 (3.8%) were called active. Many of the other results were omitted from the sample, so actives are more common in it than they were.
measure: cytotoxicity call

compound=NSC(=S)N1CCCC1 measured=inactive
compound=CN1C[C@H](C(=O)N[C@]2(C)O[C@@]3(O)[C@@H]4CCCN4C(=O)[C@H](Cc4ccccc4)N3C2=O)C=C2c3cccc4[nH]cc(c34)C[C@H]21 measured=inactive
compound=Cc1cc(OC(=O)N(C)C)cc(=O)n1C measured=inactive
compound=COc1cc(CCN)ccc1O measured=inactive
compound="Br.CC(Cc1ccc(O)cc1)NCC(O)c1cc(O)cc(O)c1 (stereo not given)" measured=inactive

Reported cytotoxicity call for CC(N)(Cc1ccccc1)c1ccccc1 (stereo not given) : what is it?
inactive

Ok, now O=C1C[C@@H](CO)CN1
inactive

Ok, now CO[C@@H]1C=C[C@@H]2[C@H]1N2CCCO (stereo not given in full)
inactive

Ok, now COCC12CN(C=O)C3C4C(OC)C1C3(C(OC)CC2O)C1CC2(O)C(OC)C(O)C4(OC(C)=O)C1C2OC(=O)c1ccccc1 (stereo not given)
inactive

Ok, now COc1ccc(OC(=O)N(C)C[C@@H]2OCc3ccccc3-c3c(n(C)c4ccccc34)C(=O)N([C@H](C)CO)C[C@@H]2C)cc1
inactive

Ok, now COc1ccc(CCN)cc1O
inactive

Ok, now Cc1nnc(N2CCC[C@]3(CNCCO3)C2)o1
inactive

Ok, now CN(C)C(=O)Oc1ccc[n+](C)c1.[Br-]
inactive

Ok, now CCC(N)C(O)c1ccc(O)c(O)c1.Cl (stereo not given)
inactive

Ok, now CCCCCCCCCCCCCCCC[n+]1ccccc1
active

Ok, now C=C(CCCCCCCCCCCCCCCC)OOC[C@@H](COP(=O)(ON)O[C@@H]1[C@H](O)[C@H](O)[C@@H](OP(=O)(O)ON)[C@H](OP(=O)(O)ON)[C@H]1O)OOC(=C)CC/C=C/C/C=C/C/C=C/C/C=C/CCCCC (stereo not given in full)
inactive

Ok, now CC(C)C[C@@H]1C(=O)N2CCC[C@@H]2[C@]2(O)O[C@@](NC(=O)[C@@H]3C=C4c5cccc6[nH]cc(c56)C[C@@H]4N(C)C3)(C(C)C)C(=O)N12
inactive

Ok, now CCN1C[C@@]2(C)CC[C@H](OC)C34[C@@H]2[C@H](O)[C@]2(OCO[C@@]25C[C@H](OC)[C@H]2C[C@]3(O)[C@@H]5[C@H]2O)[C@@H]14
inactive

Ok, now CC1(C)C(=O)C=CC2(C)C1CC(O)C1(C)C2CCC2(C)C(c3ccoc3)OC(=O)C3OC321 (stereo not given)
inactive

Ok, now CC(=O)O[C@H]1C[C@@H](OC(C)=O)C(C)(C)[C@@H]2C[C@@H](OC(C)=O)[C@]3(C)[C@H](CC[C@@]4(C)[C@H](c5ccoc5)C[C@H]5O[C@@]534)[C@@]12C
inactive

Ok, now CN1CCC2(C)c3cc(O)ccc3N(C)C12.O=C(O)C=CC(=O)O (stereo not given)
inactive

Ok, now CC(=O)OC1CC(OC(C)=O)C2(C)C(CC(OC(C)=O)C3(C)C2CCC2(C)C(c4ccoc4)C(=O)C4OC423)C1(C)C (stereo not given)
inactive

Ok, now O=c1[nH]c2ccccc2n1C1CCN(Cc2ccc(-c3nc4cc5[nH]cnc5cc4nc3-c3ccccc3)cc2)CC1
active

Ok, now Cc1cc2c(C(C)C)c(O)c(O)c(C=O)c2c(O)c1-c1c(C)cc2c(C(C)C)c(O)c(O)c(C=O)c2c1O
active

Ok, now CC1(C)C(=O)C=CC2(C)C1=C(O)C(=O)C1(C)C2CCC2(C)C(c3ccoc3)CC3OC321 (stereo not given)
active
